Tested on: CP291
assayMethodText: qHTS profiling for inhibitors of Plasmodium falciparum proliferation (AID 504749); note: nearly all actives have a fitted effect of over 60% in size
conditionDescription: P. falciparum in erythrocytes, SYBR Green DNA, 72 h; series mostly up to 28.7 µM
Inconclusive results are not listed. Calls of active or inactive are those of the source. Calls come from the whole dose curve; as a rule, active = well fitted inhibition curve with a large enough effect; inconclusive = small, poorly fitted or top-dose-only effect; inactive = flat fitted curve, though single readings scatter.
Your response should consist of one outcome taken from YES = active, NO = inactive

Below are worked cases with known answers.
INSERT INTO assay_data (compound, assignedclass) VALUES
  ('CN(CCOc1ccc(NS(C)(=O)=O)cc1)CCc1ccc(NS(C)(=O)=O)cc1', 'NO'),
  ('Clc1ccccc1C(c1ccccc1)(c1ccccc1)n1ccnc1', 'YES'),
  ('Cc1ccc(C(=O)Nc2ccc(S(=O)(=O)O)c3cc(S(=O)(=O)O)cc(S(=O)(=O)O)c23)cc1NC(=O)c1cccc(NC(=O)Nc2cccc(C(=O)Nc3cc(C(=O)Nc4ccc(S(=O)(=O)O)c5cc(S(=O)(=O)O)cc(S(=O)(=O)O)c45)ccc3C)c2)c1', 'NO'),
  ('CC(C)Cc1ccc(C(C)C(=O)O)cc1 (stereo not drawn)', 'NO'),
  ('CCC1(c2ccccc2)C(=O)NCNC1=O', 'NO'),
  ('Clc1ccc2c(c1)C(N1CCNCC1)=Nc1ccccc1O2', 'NO');

Next compound, please.
Query: Please indicate how the test categorized "COc1nc(C)nc(Cl)c1NC1=NCCN1" .
Reply: NO
